Attribution: paper PMC12888861

# Tested on: A. non-baumannii isolates (n = 87)
# Assay overview: MIC, broth microdilution (EUCAST), A. non-baumannii isolates
# Type: cell-based, Acinetobacter spp. (non-baumannii)
# Condition notes: Acinetobacter ursingii, isolate NO-Ab214, Acinetobacter ursingii; in combinations ETZ fixed at 8 mg/L; read-out: MIC
Measurement type: MIC (µg/mL)
Report only the number, with the unit µg/mL understood.

molecule=C[n+]1ccn(C[C@@]2(C)[C@H](C(=O)[O-])N3C(=O)C[C@H]3S2(=O)=O)n1 unit_of_measurement=µg/mL recorded_number=0.5

[in] Give the reported value of MIC for this record: CO/N=C(\C(=O)N[C@@H]1C(=O)N2C(C(=O)[O-])=C(C[N+]3(C)CCCC3)CS[C@H]12)c1csc(N)n1 [cefepime]
[out] 4

----------
# System: A. non-baumannii isolates (n = 87)
# Assay overview: MIC, broth microdilution (EUCAST), A. non-baumannii isolates
# Type: cell-based, Acinetobacter spp. (non-baumannii)
# Condition notes: Acinetobacter johnsonii, isolate NO-Ab101, Acinetobacter johnsonii; in combinations ETZ fixed at 8 mg/L; read-out: MIC
# Experimental: The bacterial strains used in this study comprised 208 clinical isolates from the Spanish National Acinetobacter spp. […] The antimicrobial susceptibility of the 208 Acinetobacter spp. isolates was assessed using the broth microdilution method, as described in the European Committee on Antimicrobial Susceptibility Testing (EUCAST) v.15 guidelines (http://www.eucast.org/clinical_breakpoints). […] MICs for enmetazobactam alone were assessed as well. […]
Measurement type: MIC
Returns: string containing the numeric result and its unit.

Here are 3 compounds together with their reported answers.
compound=C[C@@H](O)[C@H]1C(=O)N2C(C(=O)O)=C(SCCN=CN)C[C@H]12 result="0.12 µg/mL"
compound=CC1(C)[C@H](C(=O)O)N2C(=O)C[C@H]2S1(=O)=O result="1 µg/mL"
compound=C[n+]1ccn(C[C@@]2(C)[C@H](C(=O)[O-])N3C(=O)C[C@H]3S2(=O)=O)n1 result="4 µg/mL"

Continue with the next compound.
[in] Return MIC for the following compound: CO/N=C(\C(=O)N[C@@H]1C(=O)N2C(C(=O)[O-])=C(C[N+]3(C)CCCC3)CS[C@H]12)c1csc(N)n1 [cefepime]
[out] 4 µg/mL

----------
# Test system: A. non-baumannii isolates (n = 87)
# Assay overview: MIC, broth microdilution (EUCAST), A. non-baumannii isolates
# Assay type: cell-based, Acinetobacter spp. (non-baumannii)
# Condition notes: Acinetobacter pittii, isolate NO-Ab97, Acinetobacter pittii; in combinations ETZ fixed at 8 mg/L; read-out: MIC
Below, each entry is listed alongside its reported MIC.
Just the number please, in µg/mL, no unit attached.

Solved cases (2 shown):
compound="CO/N=C(\\C(=O)N[C@@H]1C(=O)N2C(C(=O)[O-])=C(C[N+]3(C)CCCC3)CS[C@H]12)c1csc(N)n1 [cefepime]" measurement_type=MIC recorded_number=4
compound="CC1(C)[C@H](C(=O)O)N2C(=O)C[C@H]2S1(=O)=O [sulbactam]" measurement_type=MIC recorded_number=1

Now consider the entry below.
[in] Look up MIC of C[n+]1ccn(C[C@@]2(C)[C@H](C(=O)[O-])N3C(=O)C[C@H]3S2(=O)=O)n1 [enmetazobactam] and report it.
[out] 2

----------
# Tested on: carbapenem-resistant A. baumannii (CRAB) isolates (n = 67)
# Assay overview: MIC, broth microdilution (EUCAST), carbapenem-resistant A. baumannii isolates
# Assay type: cell-based, Acinetobacter baumannii
# Condition notes: Acinetobacter baumannii, isolate Ab183; ST 2; ADC-30, OXA-66, OXA-23; ETZ fixed 8 mg/L in combinations
Measurement type: MIC

compound=CC1(C)[C@H](C(=O)O)N2C(=O)C[C@H]2S1(=O)=O result="8 mg/L"
compound=C[C@@H](O)[C@H]1C(=O)N2C(C(=O)O)=C(SCCN=CN)C[C@H]12 result="16 mg/L"
compound=C[n+]1ccn(C[C@@]2(C)[C@H](C(=O)[O-])N3C(=O)C[C@H]3S2(=O)=O)n1 result="32 mg/L"

Let us examine a further case.
[in] Consider the compound CO/N=C(\C(=O)N[C@@H]1C(=O)N2C(C(=O)[O-])=C(C[N+]3(C)CCCC3)CS[C@H]12)c1csc(N)n1 [cefepime] . State its measured MIC.
[out] 32 mg/L
